Tested on: S. aureus
ASSAY_METHOD_TEXT: Antimicrobial test, broth dilution method (MIC)
Format: cell-based
CONDITIONS_USED: single compounds of Comparative Examples
Protocol: The antimicrobial activity of the test solution was measured using a broth dilution method. The concentration of the test solution that was treated was diluted from the highest concentration of 5% to the lowest concentration of 0.0001%. The test solution was cultured in the presence of the strain and then the turbidity of the tube was determined. […]
Each record here notes measured minimum inhibitory concentration (MIC), S. Aureus.
MEASURED_ATTRIBUTE: minimum inhibitory concentration (MIC), S. Aureus (%)

MOLECULE	SYSTEM	UNITS_TEXT	VALUE_MEASURED
CC(=O)c1ccc(O)cc1 [Comparative Example 13, 4-hydroxy acetophenone]	S. aureus	%	0.2
O=C/C=C/c1ccccc1	S. aureus	%	0.03
CCCCC(CC)COCC(O)CO (centres unmarked)	S. aureus	%	0.15
OCCOc1ccccc1	S. aureus	%	0.06
O=C([O-])CN(CCN(CC(=O)[O-])CC(=O)[O-])CC(=O)[O-].[Na+].[Na+].[Na+].[Na+] [Comparative Example 24, Tetrasodium EDTA]	S. aureus	%	0.1
CCCCCCC(O)CO (centres unmarked)	S. aureus	%	0.5
CCCCC(O)CO (centres unmarked)	S. aureus	%	2
CCCCCCOCC(O)CO (centres unmarked)	S. aureus	%	0.5
CCCCCCCCC(O)CO (centres unmarked)	S. aureus	%	0.025
COc1ccc(C(=O)O)cc1 [Comparative Example 22, Sodium anisate]	S. aureus	%	0.01
OCCCc1ccccc1	S. aureus	%	0.4
O=C([O-])c1ccccc1.[Na+] [Comparative Example 14, Sodium benzoate]	S. aureus	%	0.002
CCCCCCCCCCCCNCC(O)CO (centres unmarked)	S. aureus	%	0.01
CCCCCCCCCCCC(=O)NC(CCCN=C(N)N)C(=O)OCC (centres unmarked)	S. aureus	%	0.003
Cc1cc(CC(C)CC(C)(C)C)n(O)c(=O)c1 (centres unmarked)	S. aureus	%	0.05
CC(=O)CCC(=O)O	S. aureus	%	0.02
CC(=O)CCc1ccc(O)cc1	S. aureus	%	0.1

====

System: S. aureus
ASSAY_METHOD_TEXT: Antimicrobial test, broth dilution method (MIC)
Assay type: cell-based
CONDITIONS_USED: single compounds of Comparative Examples
MEASURED_ATTRIBUTE: minimum inhibitory concentration (MIC), S. Aureus (%)

COMPOUND	VALUE_MEASURED
CCCCCCCCOCC(O)CO (stereo not drawn)	0.5
COc1ccccc1/C=C/C=O	0.02
CCCCCCCC(=O)NO [Comparative Example 17, Caprylhydroxamic acid]	0.06

Origin of the recorded values: patent US20240245051A1
